System: OE33 cells
Experiment: Apparent dissociation constant by flow cytometry with OE33 cells
Assay type: binding, human
Settings: flow cytometry, 4° C.
Procedure: The apparent dissociation constant (Kd) was measured to assess binding affinity of the heterodimer to OE33 cells. […] The mean fluorescence intensities were measured with flow cytometry (BD LSRII, BD Biosciences). The equilibrium dissociation constant Kd 1/Ka was calculated with a least-squares fit of the data to the nonlinear equation I=(I0+ImaxKa[X])/(I0+Ka[X]). […]
Ends that are not written are not given here.
Below, each entry is listed with its recorded Kd.
Use nM as the unit, but write only the number.

Data request: Observed Kd on OE33 cells for QRH*-GGGSK-Cy5.5 (QRHKPREGGGSK-NH2; also: Cy5.5 label on C-terminal Lys side chain) [QRH*-Cy5.5] , please.
Data returned: 98

Data request: API: value(readout=Kd, system=OE33 cells) for record KSP*-GGGSK-Cy5.5 (KSPNPRFGGGSK-NH2; also: Cy5.5 label on C-terminal Lys side chain) [KSP*-Cy5.5]
Data returned: 54

Data request: Give the reported Kd for heterodimer of QRHKPRE (SEQ ID NO: 1) and KSPNPRF (SEQ ID NO: 2) with E3 (triethyleneglycol) linker, Cy5.5 label [QRH*-KSP*-E3-Cy5.5] (system: OE33 cells).
Data returned: 23
